Biological target: BRD4 (Homo sapiens)
pIC50: −log10 of the molar value.
quantity name: pIC50

Reference set (5 entries):
Cc1noc(C)c1-c1cc(C(N)=O)c2c(c1)c1ccc(C(=O)N3CCC(F)CC3)cc1n2S(C)(=O)=O    > 6.30
Cc1noc(C)c1-c1cc(C(N)=O)c2c(c1)c1ccc(C(=O)N3CCCC(F)C3)cc1n2S(C)(=O)=O (stereo not drawn)    > 7.30
Cc1noc(C)c1-c1cc(C(N)=O)c2[nH]c3cc(C(=O)N4CCOCC4)ccc3c2c1    > 6.30
Cc1noc(C)c1-c1cc(C(N)=O)c2c(c1)c1ccc(NC(=O)OC(C)(C)C)cc1n2CC1CC1    > 6.30
Cc1noc(C)c1-c1cc(C(N)=O)c2c(c1)c1cc(S(C)(=O)=O)ccc1n2S(=O)(=O)C1CC1    > 6.30

Lab note: measured pIC50 of `Cc1noc(C)c1-c1cc(C(N)=O)c2c(c1)c1ccc(N(c3nccs3)c3nccs3)cc1n2CC1CC1` was > 6.30

Lab note: measured pIC50 of `Cc1noc(C)c1-c1cc(C(N)=O)c2c(c1)c1c(C(=O)N3C[C@@H](C)O[C@@H](C)C3)cc(C(F)(F)F)cc1n2S(=O)(=O)C1CC1` was > 6.30

Lab note: measured pIC50 of `Cc1noc(C)c1-c1cc(C(N)=O)c2c(c1)c1ccc(C(=O)N(C)C)cc1n2S(C)(=O)=O` was > 7.30

Lab note: measured pIC50 of Cc1noc(C)c1-c1cc(C(N)=O)c2c(c1)c1ccc(C(=O)N3CCCC(F)C3)cc1n2S(=O)(=O)C1CC1 (stereo not drawn) was > 7.30

Lab note: measured pIC50 of `CCOC(=O)Nc1ccc2c3cc(-c4c(C)noc4C)cc(C(N)=O)c3n(CC3CC3)c2c1` was > 5.30

* * *

Target: BRD4 (Homo sapiens, UniProt O60885)
Assay: Time Resolved Fluorescence Resonance Energy Transfer (TR-FRET) binding assay
Settings: one of the FRET assays described (BRD4 construct not given)
pIC50: −log10 of the molar value.
quantity name: pIC50

Cc1noc(C)c1-c1cc(C#N)c2[nH]c3cc(C(=O)N4CCOCC4)ccc3c2c1 [Example 58]    > 5.30
Cc1noc(C)c1-c1cc(C(N)=O)c2c(c1)c1ccc(N3CCCOC3=O)cc1n2CC1CC1 [Example 43]    > 7.30
Cc1noc(C)c1-c1cc(-c2nc[nH]n2)c2c(c1)c1ccc(C(=O)N3CCOCC3)cc1n2CC1CC1 [Example 70]    > 5.30
Cc1noc(C)c1-c1cc(C(N)=O)c2c(c1)c1ccc(N3CCCS3(=O)=O)cc1n2CC1CC1 [Example 71]    > 7.30
Cc1noc(C)c1-c1cc(C(N)=O)c2c(c1)c1ccc(C=O)cc1n2CC1CC1 [Example 47]    > 6.30

Lab note: measured pIC50 of Cc1noc(C)c1-c1cc(C(N)=O)c2c(c1)c1ccc(C(=O)N3CCCC(N(C)C)C3)cc1n2S(C)(=O)=O (stereo not shown) [Example 10] was > 7.30

Lab note: measured pIC50 of Cc1noc(C)c1-c1cc(C(N)=O)c2c(c1)c1ccc(C(=O)N3CCS(=O)(=O)CC3)cc1n2S(C)(=O)=O [Example 15] was > 5.30
